The reported measurements were obtained from patent US20230235080A1.

assay.target: T1, human Trop-2-ECD-6His fusion protein (human, UniProt P09758 27-274)
T1 construct: Expressed in a human 293 cell line; also called huTrop-2; human Trop-2 antigen
T1 sequence: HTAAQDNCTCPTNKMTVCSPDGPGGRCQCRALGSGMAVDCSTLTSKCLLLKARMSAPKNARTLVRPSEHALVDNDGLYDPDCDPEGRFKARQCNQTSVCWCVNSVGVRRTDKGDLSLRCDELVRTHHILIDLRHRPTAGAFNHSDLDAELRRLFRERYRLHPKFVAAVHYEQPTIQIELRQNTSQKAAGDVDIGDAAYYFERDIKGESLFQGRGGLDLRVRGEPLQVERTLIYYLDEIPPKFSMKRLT
test: antigen binding ELISA on immobilized human Trop-2-ECD-6His
value.kind: pEC50
// pEC50 here means minus log10 of the molar concentration (mol/L)

get_value(item= humanized #125-1-5 Hu4/Lu6 (antibody, V domains shown, Humanized antibody) VH: QVQLVQSGAEVKKPGASVKMSCKASGYTFTTYVIHWVRQAPGQRLEWIGYINPNNDGTKYNEKFKGRATLTSDKSASTAYMELSSLRSEDTAVYYCARPHFETHAMDYWGQGTLVTVSS VL: DIQMTQSPSSLSASVGDRVTITCKASEDIFNRLAWYQQKPGKAPKLLISGATSLETGVPSRFSGSGSGKDYTLTISSLQPEDFATYYCQQYWNTWTFGQGTKVEIK , readout=pEC50) returns 10.66

Measured pEC50, humanized #125-1-5 Hu2/Lu5 (antibody, V domains shown, Humanized antibody) VH: QVQLVQSGAEVKKPGASVKVSCKASGYTFTTYVIHWVKQKPGQGLEWIGYINPNNDGTKYNEKFKGRVTITRDTSASTAYMELSSLRSEDTAVYYCARPHFETHAMDYWGQGTLVTVSS VL: DIQMTQSPSSLSASVGDRVTITCKASEDIFNRLAWYQQKPGKAPKLLLYGATSLETGVPSRFSGSGSGTDYTLTISSLQPEDFATYYCQQYWNTWTFGQGTKVEIK : 11.15

Reported pEC50 of humanized #125-1-5 Hu2/Lu6 (antibody, V domains shown, Humanized antibody) VH: QVQLVQSGAEVKKPGASVKVSCKASGYTFTTYVIHWVKQKPGQGLEWIGYINPNNDGTKYNEKFKGRVTITRDTSASTAYMELSSLRSEDTAVYYCARPHFETHAMDYWGQGTLVTVSS VL: DIQMTQSPSSLSASVGDRVTITCKASEDIFNRLAWYQQKPGKAPKLLISGATSLETGVPSRFSGSGSGKDYTLTISSLQPEDFATYYCQQYWNTWTFGQGTKVEIK : 10.74
